Origin of the recorded values: PubChem BioAssay AID687016

Molecular target: E3 ubiquitin-protein ligase UHRF1 (Homo sapiens) (UniProt Q96T88)
Sequence (Q96T88 whole entry, looked up, the tested form may be a part): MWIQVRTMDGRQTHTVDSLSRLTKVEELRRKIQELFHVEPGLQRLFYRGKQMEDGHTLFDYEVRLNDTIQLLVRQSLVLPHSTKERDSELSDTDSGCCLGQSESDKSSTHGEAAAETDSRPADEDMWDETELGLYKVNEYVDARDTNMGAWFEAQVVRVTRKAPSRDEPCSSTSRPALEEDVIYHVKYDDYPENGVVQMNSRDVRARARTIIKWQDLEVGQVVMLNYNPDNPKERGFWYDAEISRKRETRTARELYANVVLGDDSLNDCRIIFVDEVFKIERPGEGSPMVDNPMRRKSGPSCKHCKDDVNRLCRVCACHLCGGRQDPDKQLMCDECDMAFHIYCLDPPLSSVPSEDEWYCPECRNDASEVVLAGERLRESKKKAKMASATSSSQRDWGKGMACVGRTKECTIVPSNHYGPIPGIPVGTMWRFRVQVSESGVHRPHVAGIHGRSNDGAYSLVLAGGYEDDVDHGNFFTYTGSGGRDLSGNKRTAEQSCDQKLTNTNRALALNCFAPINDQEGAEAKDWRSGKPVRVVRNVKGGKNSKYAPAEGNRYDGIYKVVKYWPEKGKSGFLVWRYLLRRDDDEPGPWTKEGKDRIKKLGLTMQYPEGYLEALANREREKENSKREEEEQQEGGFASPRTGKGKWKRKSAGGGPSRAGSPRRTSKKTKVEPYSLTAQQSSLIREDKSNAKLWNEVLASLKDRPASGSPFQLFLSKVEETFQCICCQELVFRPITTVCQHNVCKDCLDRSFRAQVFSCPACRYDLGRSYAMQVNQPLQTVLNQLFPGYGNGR
Assay: UHRF1 methylated DNA binding inhibitors, primary screen, counter-screen for MBD2 inhibitor project, biochemical, TR-FRET, human UHRF1, single concentration (AID 687016);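 note: UHRF1 SRA domain binding a hemimethylated CpG hairpin DNA probe; 0% = median of test compound wells and 100% = reference inhibitor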
Details: UHRF1 binding to methylated oligo, at 4.4 µM, stronger effect = higher value
Out of some 370,000 compounds screened, about 2,800 (0.76%) were called active. The sample holds actives, similar compounds and a random draw of the others, so the mix is not that of the screen.

| Line Notation | inhibition (%) |
| --- | --- |
| O=c1c2ccccc2nc(-c2ccc(Cl)cc2Cl)n1-c1ccncc1 | -0.96 |
| CN(C)CCCN=Cc1c(O)n(Cc2ccco2)c(=O)[nH]c1=O | 0.23 |
| Cc1cc(/C=C2/C(=O)NC(=O)N(Cc3ccco3)C2=O)c(C)n1-c1ccc(C(=O)O)cc1 | 78.5 |
| S=C(NCCc1ccccc1)N1Cc2cc(N3CCOCC3)ccc2-n2nncc2C1 | -3.2 |
| Cc1ccccc1CCC[C@@H](CC1CCCCC1)CN(C)C(=O)Oc1ccccc1 | -0.75 |
| Cn1cc(C(=O)OCC(=O)N2CCCC2)c2ccccc21 | 73.7 |
| NC(=O)Cn1cc(C(=O)c2ccccc2F)c2ccccc21 | -1.97 |
| CC(=O)Nc1ccccc1C(=O)OCC(=O)c1cccc2ccccc12 | 0.36 |
| CC(=CCOc1ccc2ccc(=O)oc2c1)C1=CC(=O)C(C)(C)O1 | 0.79 |
| O=C1NC(=O)N(Cc2ccco2)C(=O)/C1=C\c1ccc(-c2ccc(F)cc2)o1 | 81.8 |
